For each record, write down the corresponding cytotoxicity at 70.5 h.
assay: Human HepG2 cell viability assay in 384 well format; format: toxicity, cell-based; set-up: dose 125 nL, time 70.5 hour; concentration not given beside the values; settings: HepG2 cells, read-out: Inhibition
Please respond with the number in % and leave the unit unwritten.

Task: I would be grateful if you could share the reported cytotoxicity at 70.5 h for COc1cc2c(cc1C(=O)N1CCCCC1c1ccccn1)CCC2 (stereo unspecified) .
Result: -24

Task: Then what about the compound c1cnnc(N2CCCC2CNCc2ccsc2)c1 (stereo unspecified) ?
Result: -10.1

Task: Would you kindly repeat that for CCC(NC(=O)CS(=O)(=O)C1CCCC1)c1cc(F)ccc1F (stereo unspecified) ?
Result: -7.05

Task: Next record, please: CN(Cc1cccs1)C1CCC[C@@H]2CN(C(=O)c3cccn3C)C[C@H]12 (stereo partly specified)
Result: -12.3

Task: How about this compound: Cc1noc(C)c1CN1CCO[C@H]2[C@H](Oc3ncccc3F)CC[C@@H]21
Result: -9.05

Task: O=C1[C@H]2CN(C3CCOC3)C[C@H]2CN1c1ccccc1 (stereo partly specified) , same question.
Result: -1.16

Task: Do the same for Cc1cnc(N)c(C(=O)C2CCN(C(=O)c3cnc(C)cn3)CC2)c1 please
Result: -13

Task: Again, but for O=C(c1ccc(F)cc1Cl)N1CCn2c(nnc2C(F)(F)F)C1
Result: 1.4

Task: And for COc1cc2c(cc1OC)C(=O)C(Sc1nnc(C)o1)C2 (stereo unspecified) ?
Result: -15.9

Task: Same question, Cn1c(CN2CCOCC2)nnc1C1CCN(C(=O)C2CCCC2)CC1 this time
Result: 2.41

Task: Input CN(C)Cc1nn(C)c2c1CN(C(=O)c1ccc[nH]1)C2
Result: -0.767

Task: Cool, now CC(NC(=O)Cn1ccc2sccc2c1=O)c1ccccc1 (stereo unspecified)
Result: -10.1

Task: Please do the same for Cc1cnccc1-n1nc(C(C)C)nc1CCN(C)S(C)(=O)=O as well.
Result: -1.14

Task: Another: CC(C)(C)c1cc(C[C@H]2CNCC[C@H]2CC(=O)N2CCCCC2)no1
Result: -1.6

Task: Same read-out for Cc1ncc(CN2CCCN(Cc3noc(C4CC4)n3)CC2)s1 ?
Result: 23.6

Task: Follow-up item: Cc1ccc(NC(=O)CS(=O)(=O)NC2CCC(C)CC2)nc1 (stereo unspecified)
Result: -2.47

Task: And the next one, COc1ccccc1C1SCC(=O)Nc2n[nH]cc21 (stereo unspecified) ?
Result: 3.24

Task: Similarly, Cc1nc(C2CCCN2C(=O)CCn2cncn2)no1 (stereo unspecified) ?
Result: -3.86

Task: Could you do the same for Cc1csc2c(N3CCNC(C(=O)Nc4ccc(F)cc4)C3)ncnc12 (stereo unspecified) , please?
Result: -9.29

Task: What would you report for Clc1cc(Cl)cc(CN2CCC(NCc3cc[nH]n3)CC2)c1 ?
Result: -4.79

Task: Input CN(C)c1nc2c(c(=O)[nH]1)CCN(C(=O)C1CCCO1)C2 (stereo unspecified)
Result: -8.42

Task: For CC(=O)Nc1ncc(-c2ccc(C)cc2)[nH]1 then?
Result: 4.65

Task: Now try COCCCn1cnnc1C(C)NC(=O)c1[nH]c2ccc(C)cc2c1C (stereo unspecified) .
Result: -4.22

Task: Same question for Cc1cccc(C(C(=O)NCc2nc(-c3ncccn3)no2)N(C)C)c1 (stereo unspecified) please.
Result: -2.35

Task: Try Cc1cccc(-c2nnn3c2COC(CNC(=O)N2CCCC2)C3)c1 (stereo unspecified) next.
Result: 1.74

Task: Moving on to CC(NC(=O)CCn1cccn1)c1cccs1 (stereo unspecified)
Result: -0.167

Task: Record: Cc1noc(C)c1CN1CCn2cc(CN3CCOCC3)nc2C1
Result: -0.251

Task: Next entry: Cc1nc(N(C)C)nc(-c2cccc(-c3ccn(CCCO)n3)c2)c1C
Result: -7.13

Task: Moving on to the next compound: Cc1nnc(CN(Cc2ccc3c(c2)OCO3)C2CCC(C)CC2)o1 (stereo unspecified)
Result: -1.97

Task: Try the compound CN(Cc1ccc(Cl)c(Cl)c1)C(=O)CNC(N)=O
Result: 0.00328

Task: // query: NC1C=C(C(F)(F)F)NC=C1c1ccccc1 (stereo unspecified)
Result: -0.126

Task: Next up: Cc1[nH]ncc1CCCNC(=O)Nc1ccc2c(c1)OC1(CCCC1)O2
Result: -2.92

Task: What about COCCN1C[C@H](NC(=O)CCC(F)(F)F)[C@@H](C(C)C)C1 ?
Result: -2.58

Task: Could you do the same for CCOC(=O)COc1cccc(NC(=O)C2COCCO2)c1 (stereo unspecified) , please?
Result: -3.53

Task: What about this compound? CC(C)c1nc(C2CCCN2CC(=O)N2CCNC2=O)no1 (stereo unspecified)
Result: -3.44

Task: Also, Cc1cc(CN(C)Cc2cnc3c(c2)c(C)nn3C)no1 please.
Result: 8.45

Task: Input O=C(O)c1c[nH]c2cc(NS(=O)(=O)c3cc(F)ccc3Cl)ccc12
Result: -9.41

Task: Now consider CC(C)NC(=O)CSc1nc2c(cnn2CCO)c(=O)[nH]1 .
Result: 26.7

Task: Now consider COc1cccc(CNCCc2cc(F)cc3c2OCOC3)c1OC and answer again.
Result: 5.71

Task: And for Cc1nc(N2CCCC2)nc2c1CN(C(=O)c1ccco1)CC2 ?
Result: -4.28

Task: Do the same for O=C(Nc1ncn(CC(=O)N2CCCCCC2)n1)C1CCCC1 please
Result: -7.56

Source listed as ChEMBL document CHEMBL3507680.
